Listed here: items and their measured % Inhibition of 17(alpha)hydroxylase/lyase, [I] = [S].
# TGT: 17(alpha)-hydroxylase/C17,20-lyase (Rattus norvegicus)
# Construct: with rat testis homogenates (2.7 mg protein in 0.5 ml phosphate buffer); from tissue; host or cells: rat testis homogenate
# Sequence (P11715 1-507): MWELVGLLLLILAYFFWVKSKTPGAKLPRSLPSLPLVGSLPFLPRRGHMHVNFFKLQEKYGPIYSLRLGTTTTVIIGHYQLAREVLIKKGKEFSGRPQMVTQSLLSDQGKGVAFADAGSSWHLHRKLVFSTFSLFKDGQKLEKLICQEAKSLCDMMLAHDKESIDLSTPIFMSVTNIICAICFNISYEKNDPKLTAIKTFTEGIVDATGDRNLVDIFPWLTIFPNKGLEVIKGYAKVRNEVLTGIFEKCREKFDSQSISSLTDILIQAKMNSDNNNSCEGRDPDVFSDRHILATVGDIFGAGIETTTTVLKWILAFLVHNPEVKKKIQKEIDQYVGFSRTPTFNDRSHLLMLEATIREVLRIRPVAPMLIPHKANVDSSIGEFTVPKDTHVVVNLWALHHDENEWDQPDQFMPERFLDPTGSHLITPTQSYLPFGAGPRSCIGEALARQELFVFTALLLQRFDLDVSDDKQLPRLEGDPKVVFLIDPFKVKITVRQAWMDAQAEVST
# TEST DETAILS: Hydroxylase/lyase assay, rat testis homogenates, [21-14C]-progesterone side-chain cleavage (Examples 2 and 3, Table 2)
# Format: biochemical
# CONDITIONS: [I] = [S]; progesterone 40 microM, 45 min
RECORDED METRIC: % Inhibition of 17(alpha)hydroxylase/lyase, [I] = [S] (%)

>  <MOLECULE>
C[C@H](C=O)[C@H]1CC[C@H]2[C@@H]3CCC4=CC(=O)CC[C@]4(C)[C@H]3CC[C@]12C

>  <VALUE>
61.76

$$$$
>  <MOLECULE>
CC(O)(C#N)[C@H]1CC[C@H]2[C@@H]3CCC4=CC(=O)CC[C@]4(C)[C@H]3CC[C@]12C (stereo partly shown) [Compound I-25, 20-cyano-20-hydroxy-4-pregnen-3-one]

>  <VALUE>
50.63

$$$$
>  <MOLECULE>
CC(=O)N1CCN(c2ccc(OCC3COC(Cn4ccnc4)(c4ccc(Cl)cc4Cl)O3)cc2)CC1 (stereo not shown) [Ketoconazole, reference compound]

>  <VALUE>
31.53

$$$$

----------
# TGT: rat testicular 17(alpha)-hydroxylase/C17,20-lyase (Rattus norvegicus)
# Construct: rat testicular homogenates (prepared from 220-250g adult male Sprague-Dawley rats); from tissue; host or cells: testes of adult male Sprague-Dawley rats, homogenate
# TEST DETAILS: Hydroxylase/lyase assay, rat testicular homogenates, [21-14C]progesterone (Example 4, Table 3)
# Type: biochemical
# CONDITIONS: 0.75 h, pH 7.4, read-out: Inhibition of 17(alpha)-hydroxylase/C17,20-lyase (%), [I] = [S]
Listed here: items and their measured inhibition at 40 µM.

>  <COMPOUND>
C[C@@H](N)[C@H]1CC[C@H]2[C@@H]3CC=C4C[C@@H](O)CC[C@]4(C)[C@H]3CC[C@]12C [Compound I-10]

>  <inhibition at 40 µM (%)>
8.54

$$$$
>  <COMPOUND>
CC(C#N)=C1CC[C@H]2[C@@H]3CCC4=CC(=O)CC[C@]4(C)[C@H]3CC[C@]12C [Compound I-26, 20-cyano-4,17(20)-pregnadien-3-one]

>  <inhibition at 40 µM (%)>
53.5

$$$$
>  <COMPOUND>
C[C@H](N)[C@H]1CC[C@H]2[C@@H]3CC=C4C[C@@H](O)CC[C@]4(C)[C@H]3CC[C@]12C [Compound I-9]

>  <inhibition at 40 µM (%)>
13.6

$$$$
>  <COMPOUND>
C#C[C@H]1CC[C@H]2[C@@H]3CC=C4C[C@@H](O)CC[C@]4(C)[C@H]3CC[C@]12C [Compound I-29]

>  <inhibition at 40 µM (%)>
8.26

$$$$
>  <COMPOUND>
CC(=NO)[C@H]1CC[C@H]2[C@@H]3CC=C4C[C@@H](O)CC[C@]4(C)[C@H]3CC[C@]12C [Compound I-1]

>  <inhibition at 40 µM (%)>
15

$$$$
>  <COMPOUND>
C=C[C@H]1CC[C@H]2[C@@H]3CC=C4C[C@@H](O)CC[C@]4(C)[C@H]3CC[C@]12C [Compound I-28]

>  <inhibition at 40 µM (%)>
13.5

$$$$
>  <COMPOUND>
C[C@H](C=NO)[C@H]1CC[C@H]2[C@@H]3CCC4=CC(=O)CC[C@]4(C)[C@H]3CC[C@]12C [Compound I-23]

>  <inhibition at 40 µM (%)>
39.3

$$$$
>  <COMPOUND>
C[C@]12CC[C@H]3[C@@H](CC=C4C[C@@H](O)CC[C@@]43C)[C@@H]1CC[C@@H]2[C@]1(C)CO1 [Compound I-7]

>  <inhibition at 40 µM (%)>
21.6

$$$$
>  <COMPOUND>
CC(=NO)C1=CC[C@H]2[C@@H]3CC=C4C[C@@H](O)CC[C@]4(C)[C@H]3CC[C@]12C [Compound I-5]

>  <inhibition at 40 µM (%)>
25.2

$$$$
>  <COMPOUND>
C[C@]12CC[C@H]3[C@@H](CC=C4C[C@@H](O)CC[C@@]43C)[C@@H]1CC[C@@H]2[C@@]1(C)CO1 [Compound I-8]

>  <inhibition at 40 µM (%)>
16.3

$$$$
